inhibition at 10 µM values by entry
target-or-system: HIV protease (Human immunodeficiency virus type 1 group M subtype B)
Construct: and purified protease
assay-comment: HIV Protease Assay
Assay type: biochemical
condition-set: pH 5.5, 10 μM inhibitor, 4% DMSO, 450 μM substrate, pH 5.5, 30 minutes at 37° C., RP-HPLC; read-out: HIV Protease % Inhibition at 10 μM
State just the number; it will be interpreted in %.

Q) Provide the reported inhibition at 10 µM (system: HIV protease (Human immunodeficiency virus type 1 group M subtype B)) for CC(C)(C)OC(=O)N[C@@H](Cc1ccccc1)[C@H](O)CNC[C@@H](O)[C@H](Cc1ccccc1)NC(=O)C1NC(=O)c2ccccc21 (stereo partly shown)
A) 89

Q) Provide the reported inhibition at 10 µM (system: HIV protease (Human immunodeficiency virus type 1 group M subtype B)) for CC(C)(C)OC(=O)N[C@@H](Cc1ccccc1)[C@H](O)CNC[C@@H](O)[C@H](Cc1ccccc1)NC(=O)[C@@H](NC(=O)OCc1cc2ccncc2o1)C(C)(C)C
A) 99

Cited source for all entries: patent US5760036A
